FYI, the data here is from PubChem BioAssay AID328.

Measured T/C values are reported for all entries that follow.
Tested on: BDF1 mice, P388 leukemia ip, median survival T/C
Assay Name: NCI In Vivo Anticancer Drug Screen. Data for tumor model P388 Leukemia (intraperitoneal) in B6D2F1 (BDF1) mice
Condition Notes: endpoint: median survival time; dose: 3.12 mg/kg/injection; schedule: Q01DX009 (ip); vehicle: Klucel (hydroxypropylcellulose) (HPC); higher = longer survival
Toxic doses and inconclusive results are not listed.
Endpoint Name: T/C

CCN1CCCC(Nc2cc(C)nc(Nc3nc4cc(Cl)c(Cl)cc4[nH]3)n2)C1 (stereo not given)
90 % of control
CCOC(=O)CN1C(=O)C(Cl)=C(Cl)C1=O
95 % of control
CC(=O)[O][Hg][c]1c(C)c(C)c(C)c(C)c1C
98 % of control
O=C(c1ccccc1)C(O)(CC(c1ccccc1)[P+](c1ccccc1)(c1ccccc1)c1ccccc1)c1ccccc1 (stereo not given)
122 % of control
O=S(=O)(Nc1ccc(NS(=O)(=O)c2ccccc2)cc1)c1ccccc1
100 % of control
